Biological target: aprataxin FHA domain K38A (residues 1-105)
Sequence (chain, as listed by the source K38A): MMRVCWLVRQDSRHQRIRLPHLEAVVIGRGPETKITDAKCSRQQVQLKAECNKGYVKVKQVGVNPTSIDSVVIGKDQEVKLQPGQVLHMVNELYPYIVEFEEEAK
Experiment: ITC
reported_metric: pKd
Scale: pKd equals -log10([C]), with [C] in mol/L.

binder	reported_metric	measurement
YDESTDEES (HELM PEPTIDE1{Y.D.E.[O=C([C@H](COP(=O)(O)O)N[*:1])[*:2]].[C[C@@H](OP(=O)(O)O)[C@H](N[*:1])C(=O)[*:2]].D.E.E.S.[am]}$$$$V2.0; N-terminus assumed; SMILES C[C@@H](OP(=O)(O)O)[C@H](NC(=O)[C@H](COP(=O)(O)O)NC(=O)[C@H](CCC(=O)O)NC(=O)[C@H](CC(=O)O)NC(=O)[C@@H](N)Cc1ccc(O)cc1)C(=O)N[C@@H](CC(=O)O)C(=O)N[C@@H](CCC(=O)O)C(=O)N[C@@H](CCC(=O)O)C(=O)N[C@@H](CO)C(N)=O) [XRCC4 229-237 peptide phosphorylated on Ser232 and Thr233]	pKd	5.72

In the following, a different binder is considered.
Task item: Sample YDESTDEES (HELM PEPTIDE1{Y.D.E.S.[C[C@@H](OP(=O)(O)O)[C@H](N[*:1])C(=O)[*:2]].D.E.E.S.[am]}$$$$V2.0; N-terminus assumed; SMILES C[C@@H](OP(=O)(O)O)[C@H](NC(=O)[C@H](CO)NC(=O)[C@H](CCC(=O)O)NC(=O)[C@H](CC(=O)O)NC(=O)[C@@H](N)Cc1ccc(O)cc1)C(=O)N[C@@H](CC(=O)O)C(=O)N[C@@H](CCC(=O)O)C(=O)N[C@@H](CCC(=O)O)C(=O)N[C@@H](CO)C(N)=O) [XRCC4 229-237 peptide phosphorylated on Thr233] — what was its pKd?
Reply: 5.17
